I'd be grateful if you could share measured pIC50 for these entries.
# measurement_target: UniProtKB Q9UBM7
# Sequence (Q9UBM7 whole entry): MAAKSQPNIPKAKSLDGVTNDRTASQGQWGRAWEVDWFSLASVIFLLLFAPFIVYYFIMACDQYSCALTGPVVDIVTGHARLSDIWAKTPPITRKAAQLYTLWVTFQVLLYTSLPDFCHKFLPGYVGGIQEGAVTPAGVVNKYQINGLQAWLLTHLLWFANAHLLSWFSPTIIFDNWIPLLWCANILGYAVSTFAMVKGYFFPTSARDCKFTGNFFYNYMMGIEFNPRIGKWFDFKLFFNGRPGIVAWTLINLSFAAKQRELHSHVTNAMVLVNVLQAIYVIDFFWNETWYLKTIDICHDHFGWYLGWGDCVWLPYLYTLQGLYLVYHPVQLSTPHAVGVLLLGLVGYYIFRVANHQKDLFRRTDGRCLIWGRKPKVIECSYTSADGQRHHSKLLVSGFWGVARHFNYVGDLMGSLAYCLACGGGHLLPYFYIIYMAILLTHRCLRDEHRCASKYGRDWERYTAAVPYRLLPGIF
# test_details: Growth inhibition of multidrug resistant MCF7/Adr cells containing antiestrogen binding sites
Give bare numbers, as −log10 of the molar value.

| molecule | measurement_type | observed_measurement |
| --- | --- | --- |
| CC/C(=C(/c1ccc(O)cc1)c1ccc(OCCN(C)CCOCCOCCO/N=C/c2ccc(O)c(C(=O)NCN[C@H]3C[C@H](O[C@H]4C[C@](O)(C(=O)CO)Cc5c(O)c6c(c(O)c54)C(=O)c4c(OC)cccc4C6=O)O[C@@H](C)[C@H]3O)c2)cc1)c1ccccc1 | pIC50 | 7.22 |

Pending molecule:
Note to self: pIC50 of `COc1cccc2c1C(=O)c1c(O)c3c(c(O)c1C2=O)C[C@@](O)(C(=O)CO)C[C@@H]3O[C@H]1C[C@H](NCNC(=O)c2ccccc2O)[C@H](O)[C@H](C)O1` with UniProtKB Q9UBM7 was 5.70
